Attribute: kcat
Molecular target: Hst2 (Saccharomyces cerevisiae, UniProt P53686)
Sequence (P53686 1-294): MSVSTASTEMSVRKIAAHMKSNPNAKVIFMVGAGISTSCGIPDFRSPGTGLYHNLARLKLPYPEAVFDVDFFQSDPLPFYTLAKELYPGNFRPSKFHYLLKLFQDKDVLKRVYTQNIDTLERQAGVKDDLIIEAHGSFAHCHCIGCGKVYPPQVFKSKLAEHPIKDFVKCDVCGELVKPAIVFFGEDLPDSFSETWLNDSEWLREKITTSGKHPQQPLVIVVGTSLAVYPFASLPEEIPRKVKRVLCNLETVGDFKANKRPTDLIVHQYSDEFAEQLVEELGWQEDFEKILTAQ
Assay: Competition assay (inhibition mode versus NAD+ and acetyl-lysine substrate)
Assay type: biochemical
Details: substrate NAD+ varied
Please respond with the number in s⁻¹ and leave the unit unwritten.

kcat in this record for CCc1ccc(OCCCC(=O)Oc2ccc3c(c2)oc(=O)c2ccccc23)cc1 [Compound 12a] : 0.025

kcat in this record for COCC#CC1c2cc(O)c(OC)cc2CCN1C (stereo not shown) [Compound 15a] : 0.0137

kcat in this record for S=c1ccccn1[O][Zn][O]n1ccccc1=S [Compound 11b, zinc pyrithione] : 0.0145

kcat in this record for O=C(O)CCN1Cc2ccccc2C1=O [Compound 13a] : 0.0122

----------
Target: Hst2 (Saccharomyces cerevisiae)
Test: IC50 determination, fluorigenic deacetylase assay, Hst2
Conditions: read-out: Hst2 IC50; Table 5; 160 μM NAD+, 100 μM substrate, 1 μM Hst2, 15 min
Measured property: pIC50
The value called pIC50 is obtained by taking minus log10 of the concentration in mol/L.

Molecule: CC(NC(=O)c1ccccc1/N=C/c1c(O)ccc2ccccc12)c1ccccc1 (stereo not drawn) [Sirtinol (2), Sirtinol, reference compound]
Measurement target: Hst2 (Saccharomyces cerevisiae)
pIC50: 4.32
//
Molecule: CCc1ccc(OCCCC(=O)Oc2ccc3c(c2)oc(=O)c2ccccc23)cc1 [Compound 12a]
Measurement target: Hst2 (Saccharomyces cerevisiae)
pIC50: 5.19
//
Molecule: Cn1cc(C2=C(c3cn(CCCSC(=N)N)c4ccccc34)C(=O)NC2=O)c2ccccc21 [Ro 31-8220 (6), Ro 31-8220, reference compound]
Measurement target: Hst2 (Saccharomyces cerevisiae)
pIC50: 4.70

Please turn your attention to the following entry.
Hey, Hst2 (Saccharomyces cerevisiae) data for Cc1ccc(C(=O)Nc2ccc(S(=O)(=O)O)c3cc(S(=O)(=O)O)cc(S(=O)(=O)O)c23)cc1NC(=O)c1cccc(NC(=O)Nc2cccc(C(=O)Nc3cc(C(=O)Nc4ccc(S(=O)(=O)O)c5cc(S(=O)(=O)O)cc(S(=O)(=O)O)c45)ccc3C)c2)c1 [Suramin (8), Suramin, reference compound] : pIC50 came out at 3.62

----------
Target: Hst2 (Saccharomyces cerevisiae, UniProt P53686)
Assay: Competition assay (inhibition mode versus NAD+ and acetyl-lysine substrate)
Assay type: biochemical
Settings: substrate acetyl-lysine varied; read-out: Ki
Measured property: pKi
The value called pKi is obtained by taking minus log10 of the concentration in mol/L.

Molecule: O=C(O)CCN1Cc2ccccc2C1=O [Compound 13a]
Observed: 4.41

pKi in this record for CCc1ccc(OCCCC(=O)Oc2ccc3c(c2)oc(=O)c2ccccc23)cc1 [Compound 12a] : 5.20

----------
Target: Hst2 (Saccharomyces cerevisiae, UniProt P53686)
Assay: SAR analysis, fluorigenic assay at 50 and 500 μM
Type: biochemical
Details: FIG. 2, 50 μM and 500 μM compound
Measured property: inhibition of the Hst2 deacetylase reaction by metal ions (in words)

Structure: [Co+2]
Measurement target: Hst2 (Saccharomyces cerevisiae, UniProt P53686)
Observed: inhibitors
--
Structure: [Ca+2]
Measurement target: Hst2 (Saccharomyces cerevisiae, UniProt P53686)
Observed: are not
--
Structure: [Cd+2]
Measurement target: Hst2 (Saccharomyces cerevisiae, UniProt P53686)
Observed: inhibitors
--
Structure: [Mg+2]
Measurement target: Hst2 (Saccharomyces cerevisiae, UniProt P53686)
Observed: are not
--
Structure: [Zn+2]
Measurement target: Hst2 (Saccharomyces cerevisiae, UniProt P53686)
Observed: inhibitors
--
Structure: [Hg+2]
Measurement target: Hst2 (Saccharomyces cerevisiae, UniProt P53686)
Observed: inhibitors

Hey, Hst2 (Saccharomyces cerevisiae, UniProt P53686) data for "[Ni+2]" : inhibition of the Hst2 deacetylase reaction by metal ions (in words) came out at inhibitors

----------
Target: Hst2 (Saccharomyces cerevisiae, UniProt P53686)
Experiment: Competition assay (inhibition mode versus NAD+ and acetyl-lysine substrate)
Type: biochemical
Conditions: substrate acetyl-lysine varied
Measured property: kcat (s⁻¹)
Please respond with the number in s⁻¹ and leave the unit unwritten.

Molecule: COCC#CC1c2cc(O)c(OC)cc2CCN1C (stereo not shown) [Compound 15a]
Measurement target: Hst2 (Saccharomyces cerevisiae, UniProt P53686)
kcat (s⁻¹): 0.0167

Molecule: O=C(O)CCN1Cc2ccccc2C1=O [Compound 13a]
Measurement target: Hst2 (Saccharomyces cerevisiae, UniProt P53686)
kcat (s⁻¹): 0.0167

Molecule: S=c1ccccn1[O][Zn][O]n1ccccc1=S [Compound 11b, zinc pyrithione]
Measurement target: Hst2 (Saccharomyces cerevisiae, UniProt P53686)
kcat (s⁻¹): 0.0217

Please turn your attention to the following entry.
Hey, Hst2 (Saccharomyces cerevisiae, UniProt P53686) data for CCc1ccc(OCCCC(=O)Oc2ccc3c(c2)oc(=O)c2ccccc23)cc1 [Compound 12a] : kcat came out at 0.0163

----------
Target: Hst2 (Saccharomyces cerevisiae, UniProt P53686)
Assay: Competition assay (inhibition mode versus NAD+ and acetyl-lysine substrate)
Format: biochemical
Conditions: Ki, substrate acetyl-lysine varied
Measured property: Ki (nM)
Please respond with the number in nM and leave the unit unwritten.

Hey, Hst2 (Saccharomyces cerevisiae, UniProt P53686) data for S=c1ccccn1[O][Zn][O]n1ccccc1=S [Compound 11b, zinc pyrithione] : Ki came out at 700

----------
Target: full-length human SIRT1 (Homo sapiens)
Sequence (Q96EB6 whole entry): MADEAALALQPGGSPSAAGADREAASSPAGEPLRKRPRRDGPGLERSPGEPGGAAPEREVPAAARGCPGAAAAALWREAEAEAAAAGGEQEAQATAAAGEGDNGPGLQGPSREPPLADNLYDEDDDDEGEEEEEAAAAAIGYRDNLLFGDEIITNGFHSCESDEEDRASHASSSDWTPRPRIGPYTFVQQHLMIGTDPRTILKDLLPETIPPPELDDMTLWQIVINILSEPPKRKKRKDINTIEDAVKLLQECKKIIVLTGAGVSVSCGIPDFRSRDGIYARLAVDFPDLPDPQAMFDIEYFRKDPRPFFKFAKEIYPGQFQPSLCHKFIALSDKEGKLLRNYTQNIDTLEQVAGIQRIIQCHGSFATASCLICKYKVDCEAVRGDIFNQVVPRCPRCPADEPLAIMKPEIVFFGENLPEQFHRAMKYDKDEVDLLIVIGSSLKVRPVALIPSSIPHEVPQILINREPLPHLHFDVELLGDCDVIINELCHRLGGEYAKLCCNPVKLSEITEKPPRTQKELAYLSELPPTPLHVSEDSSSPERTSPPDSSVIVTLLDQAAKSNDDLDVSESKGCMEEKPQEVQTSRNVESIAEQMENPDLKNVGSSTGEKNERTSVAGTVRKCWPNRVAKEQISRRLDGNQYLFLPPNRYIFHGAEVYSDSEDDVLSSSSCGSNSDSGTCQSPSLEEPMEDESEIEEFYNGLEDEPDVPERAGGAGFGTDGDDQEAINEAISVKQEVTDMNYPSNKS
Experiment: IC50 determination, fluorigenic deacetylase assay, FL SIRT1
Conditions: read-out: SIRT1 IC50; Table 5; 240 μM NAD+, 200 μM substrate, 1 μM FL SIRT1, 15 min
Attribute: IC50
Please respond with the number in µM and leave the unit unwritten.

Compound: O=C(O)CCN1Cc2ccccc2C1=O [Compound 13a]
Measured property: IC50
Observed: 80

Compound: CCc1ccc(OCCCC(=O)Oc2ccc3c(c2)oc(=O)c2ccccc23)cc1 [Compound 12a]
Measured property: IC50
Observed: 6

Please turn your attention to the following entry.
IC50 in this record for COCC#CC1c2cc(O)c(OC)cc2CCN1C (stereo not drawn) [Compound 15a] : 570

----------
Target: Hst2 (Saccharomyces cerevisiae, UniProt P53686)
Assay: IC50 determination, fluorigenic deacetylase assay, Hst2
*1 amine or outer side, *2 acyl side, *3 side chain or, on linkers, in order; H or OH if unused. Where a SMILES comes first, the peptide text is derived from it. Bridges are numbered along the chain shown (N, C = ends). [ ]: non-standard residue; d: D form. X1 = CC(C)CCCCCCCCC[C@H](CC(=O)[*:1])O[*:2]
Attribute: IC50

Some compounds with known IC50 results, for comparison:
Compound: CC(C)CCCCCCCCC[C@@H]1CC(=O)N[C@@H](CCC(=O)O)C(=O)N[C@@H](CC(C)C)C(=O)N[C@H](CC(C)C)C(=O)N[C@@H](C(C)C)C(=O)N[C@@H](CC(=O)O)C(=O)N[C@H](CC(C)C)C(=O)N[C@@H](CC(C)C)C(=O)O1 [Surfactin (7), Surfactin, reference compound] (EL[dL]VD[dL]L; linker N-C via X1)
IC50: > 700 µM
//
Compound: CC(=O)[O][Cd][O]C(C)=O [Compound 11a, cadmium acetate]
IC50: 1 µM
//
Compound: O=c1[nH]c(=S)[nH]c(-c2ccccc2)c1Cc1c(O)ccc2ccccc12 [Cambinol (4), Cambinol, reference compound]
IC50: > 1000 µM

Please turn your attention to the following entry.
IC50 in this record for S=c1ccccn1[O][Zn][O]n1ccccc1=S [Compound 11b, zinc pyrithione] : 0.65 µM
